Record form. Attribute: IC50. Fill in for each entry.
system: Mel-28; assay: Cytotoxicity MTS, solid tumors, Melanoma Mel-28; format: cell-based; settings: 4-Parameter Curve Fit, NA = not active
Give a bare numeral; the unit µM is implied.

Bench note, Mel-28: CCCCCCCCCCCCCCC[C@@H](O)[C@@H](N)CC [drawing 116] , IC50 reads 9.4

Bench note, Mel-28: CCCCCCCCCCCCCCC[C@@H](O)[C@@H](N)CF [drawing 122] , IC50 reads 2.54

Bench note, Mel-28: CCCCCCCCCCCCCC[C@@H](O)[C@H](C)N [drawing 115] , IC50 reads 10.3

Bench note, Mel-28: CCCCCCCCCCCCCCCC[C@@H](O)[C@H](C)N [drawing 113] , IC50 reads 7.21

###

system: HT29; test: Cytotoxicity of spisulosine analogs, HT29 (after Berjeron et al); type: cell-based; details: Homo sapiens, HT-29, read-out: Cytotoxicity IC50 HT29
measure: pIC50
Scale: negative log10 of molar concentration, which is what pIC50 denotes.

The compound CCCCCCCCCCCCCCC[C@@H](OP(=O)(OC)OC)[C@H](C)N showed pIC50 equal to 5.90

###

tested on: HT29; experiment: Cytotoxicity of spisulosine analogs, HT29 (after Berjeron et al); assay type: cell-based; details: HT29; methodology after Berjeron et al; NA=not active; read-out: Cytotoxicity IC50 HT29
Label 1 when IC50 is strictly below 300 nM; otherwise label 0.

Task: Criterion: IC50 strictly below 300 nM. Is it met by CCCCCCCCCCCCCCCCCC(=O)[C@H](C)N [drawing 105] ?
Result: 1

Task: Criterion: IC50 strictly below 300 nM. Is it met by CCCCCCCCCCCCCCCCC(=O)[C@H](C)N [drawing 104] ?
Result: 1

Task: Criterion: IC50 strictly below 300 nM. Is it met by CCCCCCCCCCCCCCCC(=NO)C(C)N (centres unmarked) ?
Result: 0

Task: Criterion: IC50 strictly below 300 nM. Is it met by CCCCCCCCCCCCCCCC(=O)[C@@H](N)CC [drawing 106] ?
Result: 1

Task: Criterion: IC50 strictly below 300 nM. Is it met by CCCCCCCCCCCCCCC[C@H](N)[C@H](C)N ?
Result: 1

Task: Criterion: IC50 strictly below 300 nM. Is it met by CCCCCCCCCCCCCCC[C@@H](O)[C@H](C)NC ?
Result: 0

Task: Criterion: IC50 strictly below 300 nM. Is it met by CCCCCCCCCCCCCCCC(O)C(N)CC (centres unmarked) [drawing 79] ?
Result: 0

###

test system: P388; experiment: Cytotoxicity of spisulosine analogs, P388 (after Berjeron et al); format: cell-based; conditions: P388; methodology after Berjeron et al; NA=not active; hydrochloride; read-out: Cytotoxicity IC50 P388
Structures can show the parent of a compound that is named as a salt.
measure: pIC50
Scale: negative log10 of molar concentration, which is what pIC50 denotes.

Bench note, P388: CCCCCCCCCCCCCCC[C@@H](O)[C@H](C)N [drawing 47, hydrochloride] , pIC50 reads 7.51

###

tested on: HT29; test: Cytotoxicity of spisulosine analogs, HT29 (after Berjeron et al); type: cell-based; conditions: HT29; methodology after Berjeron et al; NA=not active; read-out: Cytotoxicity IC50 HT29
Label YES when IC50 is strictly below 0.03 µM; otherwise label NO.

Task: Criterion: IC50 strictly below 0.03 µM. Is it met by CCCCCCCCCCCCCCC[C@@H](N)[C@H](C)N ?
Result: NO

Task: Criterion: IC50 strictly below 0.03 µM. Is it met by CCCCCCCCCCCCCCC[C@@H](O)[C@H](C)N [drawing 36, spisulosine-285, reference compound] ?
Result: NO

Task: Criterion: IC50 strictly below 0.03 µM. Is it met by CCCCCCCCCCCCCCCC[C@@H](O)[C@H](C)NS(C)(=O)=O ?
Result: NO

Task: Criterion: IC50 strictly below 0.03 µM. Is it met by CCCCCCCCCCCCCCC[C@@H](O)[C@@H](N)CCC [drawing 64, (4S,5R)-4-Amino-5-eicosanol] ?
Result: NO

Task: Criterion: IC50 strictly below 0.03 µM. Is it met by CCCCCCCCCCCCCCCC[C@@H](O)[C@H](C)N [drawing 37, (2S,3R)-2-Amino-3-nonadecanol] ?
Result: NO

Task: Criterion: IC50 strictly below 0.03 µM. Is it met by CCCCCCCCCCCCCC[C@@H](O)[C@@H](N)CC [drawing 56, (3S,4R)-3-Amino-4-octadecanol] ?
Result: YES

Task: Criterion: IC50 strictly below 0.03 µM. Is it met by CCCCCCCCCCCCCCC[C@@H](OC(=O)C(F)(F)F)[C@H](C)N ?
Result: YES

Task: Criterion: IC50 strictly below 0.03 µM. Is it met by CCCCCCCCCCCCCCCC(=O)[C@H](C)N [drawing 102] ?
Result: NO

Task: Criterion: IC50 strictly below 0.03 µM. Is it met by CCCCCCCCCCCCCCC[C@@H](O)[C@@H](N)Cc1ccc(O)cc1 [drawing 69] ?
Result: NO

Task: Criterion: IC50 strictly below 0.03 µM. Is it met by CCCCCCCCCCCCCCC[C@@H](O)[C@@H](N)CC [drawing 58, (3S,4R)-3-Amino-4-nonadecanol] ?
Result: NO

Task: Criterion: IC50 strictly below 0.03 µM. Is it met by CCCCCCCCCCCCCC[C@@H](O)[C@@H](N)CC [drawing 57] ?
Result: YES

Task: Criterion: IC50 strictly below 0.03 µM. Is it met by CCCCCCCCCCCCCC[C@@H](O)[C@H](C)N [drawing 101] ?
Result: NO

Task: Criterion: IC50 strictly below 0.03 µM. Is it met by CCCCCCCCCCCCCCC[C@@H](O)[C@H](C)N(C)C ?
Result: NO

Task: Criterion: IC50 strictly below 0.03 µM. Is it met by CCCCCCCCCCCCC[C@@H](O)[C@H](C)N [drawing 41, (2S,3R)-2-Amino-3-hexadecanol] ?
Result: NO

Task: Criterion: IC50 strictly below 0.03 µM. Is it met by CCCCCCCCCCCCCCCC(=O)[C@@H](C)N ?
Result: NO

Task: Criterion: IC50 strictly below 0.03 µM. Is it met by CCCCCCCCCCCCCCCCC[C@@H](O)[C@H](C)N [drawing 38, (2S,3R)-2-Amino-3-eicosanol] ?
Result: NO

Task: Criterion: IC50 strictly below 0.03 µM. Is it met by CCCCCCCCCCCCCCC[C@@H](O)[C@@H](N)CF [drawing 111] ?
Result: NO

Task: Criterion: IC50 strictly below 0.03 µM. Is it met by CCCCCCCCCCCCCCC[C@@H](O)[C@H](C)NS(C)(=O)=O ?
Result: YES

Task: Criterion: IC50 strictly below 0.03 µM. Is it met by CCCCCCCCCCCCCCCC[C@@H](O)[C@@H](N)CC [drawing 60, (3S,4R)-3-Amino-4-eicosanol] ?
Result: NO
